# Test system: PEO23
# Measurement protocol: MTT cytotoxicity assay, PEO23
# Format: cell-based
# Condition parameters: PEO23, ovarian, 72 hr, read-out: IC50, cell killing
Quantity: pIC50
Interpret pIC50 as the negative base-10 log of the concentration measured in mol/L.

*Q* Recorded pIC50 for Cl.Cl.N#Cc1ccc(/C=C2/C(=O)/C(=C/c3ccc(C#N)cc3)C23CCN(C(=N)N)CC3)cc1 , please?
*A* 6.46

---

# System: TSH1
# Measurement protocol: MTT cytotoxicity assay, TSH1
# Type: cell-based
# Condition parameters: TSH1, thyroid, 72 hr, read-out: IC50, cell killing
Quantity: IC50
# output: numeric value plus its unit

*Q* Recorded IC50 for Cl.Cl.N#Cc1ccc(/C=C2/C(=O)/C(=C/c3ccc(C#N)cc3)C23CCN(C(=N)N)CC3)cc1 , please?
*A* 114 nM
